system: SF-539 CNS; assay: NCI tumour cell line growth inhibition, 48 h
MEASUREMENT_KIND: TGI

// known answers, use as guide
- CN(CCCNC(=O)c1nn(-c2ccccc2)c2c1ccc1ccccc12)CCCNC(=O)c1nn(-c2ccccc2)c2c1ccc1ccccc12: 3.62 µM
- Cc1csc2nc(-c3ccncc3)cn12: > 65.9 µM
- COC1O[C@@H]2COC(C)(C)O[C@@H]2C(=O)N1Nc1ccc([N+](=O)[O-])cc1 (some centres undefined): > 100 µM
- Cc1ccc(O)c(C2=CC3=NNC(=O)C3C(c3cccc(Br)c3)C2)c1 (centres undefined): > 75 µM
- CCN(CC)CCN1C(=O)CC2[C@@H]3CCc4cc(OC)ccc4C3CC[C@]2(C)C1=O (some centres undefined): 19.5 µM

Please supply TGI for each of the following items, keeping them in order.
1. C=C1CC2(CCOc3ccc(Cl)cc32)OC1=O (centres undefined)
2. COC(=O)C(Cc1ccc(OC)cc1O)NC(=O)OC(C)(C)C (centres undefined)

1. 0.976 µM
2. > 100 µM

Please supply TGI for each of the following items, keeping them in order.
1. CC1OC(O[C@H]2CC[C@]3(C)[C@H]4CC=C5[C@@H]6[C@@H](C)[C@H](C)CC[C@]6(C(=O)OC6OC(CO)C(O)C(O)C6O)CC[C@@]5(C(=O)O)[C@]4(C)CC[C@H]3C2(C)C)C(O)C(O)C1O (some centres undefined)
2. COC(=O)[C@@]12CN(C)[C@@H](C(C)(C)C)N1C(=O)OC2c1ccccc1 (some centres undefined)

> 100 µM
> 100 µM

###

test system: MALME-3M melanoma; assay: NCI tumour cell line growth inhibition, 48 h
MEASUREMENT_KIND: GI50

// known answers, use as guide
* O=C(OCC1OC(n2cc(C(F)(F)F)c(=O)[nH]c2=O)CC1OC(=O)c1ccc([N+](=O)[O-])cc1)c1ccc([N+](=O)[O-])cc1 (centres undefined) | 92.3 µM
* Cc1ccc(C2=Nc3c(N)nc(N)nc3NC(c3cccc(Nc4ccnc5cc(C(F)(F)F)ccc45)c3)C2)cc1 (centres undefined) | 1.86 µM
* NCCCCCn1c2c(c3ccccc3c1=O)C(=O)c1ccccc1-2 | 1.13 µM

Reported GI50 for Cc1cc(Cl)ccc1OCc1nn2c(CCCCc3nnc4sc(COc5ccc(Cl)cc5C)nn34)nnc2s1 : what is it? 29.2 µM

###

system: NCI-H522 lung; test: NCI tumour cell line growth inhibition, 48 h; in the data active = GI50 below about 0.43 µM; inactive = the rest
Tick one outcome: YES for active, NO for inactive

Below are worked cases with known answers.
* COc1ccc2c(c1OC)-c1c(c3ccc([N+](=O)[O-])cc3c(=O)n1CCCN)C2=O | NO
* COc1ccc(C2C=C(c3ccc(OC)c(OC)c3)N=C3SC=CN32)c(Br)c1 (centres undefined) | NO
* COc1ccc(C(=S)N(C)NC(=O)CC(=O)NN(C)C(=S)c2ccc(OC)cc2)cc1 | NO
* NCCCCCn1c2c(c3ccccc3c1=O)C(=O)c1ccccc1-2 | YES
* Cc1oc2c(C(=O)N/N=C\c3ccc(O)cc3O)c[nH]c2c1C | NO
* Nc1c(C(=O)c2cccc(OC[C@@H](O)CO)c2)cnn1-c1ccc(F)cc1 | NO
* COC(=O)/C=C1/SC(=Nc2ccc(F)cc2)N(CCc2c[nH]c3ccc(O)cc23)C1=O | NO
* CC1(C)CC[C@]2(C(=O)Nc3ccccn3)CC[C@]3(C)C(=CC[C@@H]4[C@@]5(C)C/C(=C/c6ccncc6)C(=O)C(C)(C)[C@@H]5CC[C@]43C)[C@@H]2C1 | NO

Outcome? CCOC(=O)/C(C#N)=C\C=C(\Sc1nc2ccccc2s1)c1ccc(Cl)cc1 NO
